# Protocol Text: yeast display, Sf9 membrane polyspecificity reagent, FACS + sequencing; frameworks hold sequencing errors
Observed Property: polyreactivity (PSR sort gate)

Residue String: QVQLVESGGGLVQAGGSLRLSCAASGRTFYQYDMGWYRQEPGKERAFVADIDWSGGSTYYADSVKGRFTISRDNAKNTVYLQMNSLKPEDTAVYYCNADAYPHPVVGYDYWGQGTQVTVSS
Observed Property: polyreactivity (PSR sort gate)
Observed Value: low polyreactivity

Residue String: QVQLVESGGGLVQAGGSLRLSCAASGSIYGPYAMGLYRQAPGKERELVAAISSGGSTYYADSVKGRFTISRDNAKNTVYLQMNSLKPEDTAVYYCNKYWGFSYLPYDSWGQGTQVTVSS
Observed Property: polyreactivity (PSR sort gate)
Observed Value: low polyreactivity

Residue String: QVQLVESGGVLVQAGGSLRLSCAASGSIFANNAMGWYRQAPGKERELVATIRSGGTTNYADSVKGRFTISRDNAKNTVYLQMNSLKPEDTAVYYCAVDYVVYADGPLDYWGQGTQVTVSS
Observed Property: polyreactivity (PSR sort gate)
Observed Value: low polyreactivity

Residue String: QVQLQERGGGLVQAGGSLRQRCAASRNISASSDLGWYHQAPGKEREFVASITSGGTTYYADSVKGRFTISRDNAKNTVYLQMNSLKPEDTAVYYCAVGDPADAEFGYWGKGTQVTVSS
Observed Property: polyreactivity (PSR sort gate)
Observed Value: low polyreactivity
